# Experimental Protocol: TOR pathway RPL19A-GFP modulators, concentration series – cell-based, S. cerevisiae, flow cytometry, MLPCN hits, dose response (AID 2740);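 also: background is signal of the same compound in parental non-GFP s288c yeast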
# Test Parameters: S. cerevisiae RPL19A-GFP strain, flow cytometry fluorescence, 3 h; at 33 µM (top of the series)
Overview of reported GFP fluorescence, lower = active (kMESF (background-subtracted)) across a group of compounds:
The answer should be written as a number, with no unit following it.

Cc1cc(C)c(S(=O)(=O)ON2C(=O)c3ccccc3C2=O)cc1C	25.8

Entry Cc1ccc(S(=O)(=O)N2CCCC2C(=O)NCc2ccncc2)cc1 (stereo unspecified) , GFP fluorescence, lower = active (kMESF (background-subtracted)) reported as 39.8

Just so you know, measured GFP fluorescence, lower = active (kMESF (background-subtracted)) for O=C(O)C1Sc2[nH]c(=O)sc2C2c3cc(Br)ccc3OC(=O)C12 (stereo unspecified) came out at 37.8

Lookup result for Cc1ccc(NC(=O)CCc2ccccc2)cc1S(=O)(=O)N1CCOCC1 ; measured GFP fluorescence, lower = active (kMESF (background-subtracted)): 45.9

So, Clc1cccc(CN2COc3c(cc(Cl)c4cccnc34)C2)c1 ? Its GFP fluorescence, lower = active (kMESF (background-subtracted)) was 36.5

Given item O=C1N(c2ccccc2C(F)(F)F)OC1(Cc1ccccc1)c1ccccc1 (stereo unspecified) , the value recorded as its GFP fluorescence, lower = active (kMESF (background-subtracted)) is 45.8
